B1: TPR t1 (parent)
chain: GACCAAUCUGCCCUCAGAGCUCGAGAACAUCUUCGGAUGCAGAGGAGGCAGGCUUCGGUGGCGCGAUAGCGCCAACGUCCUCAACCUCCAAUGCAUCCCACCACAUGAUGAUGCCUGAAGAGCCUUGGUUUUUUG

Variants of: B1
Assay: polymerase ribozyme fitness, log enrichment relative to wild type (log ratio); higher = more active; in vitro selection for triplet polymerase activity
Note to self: values exactly at -2 are met. So polymerase ribozyme fitness (log ratio) at or above -2 is met, below is not met.

Change | Class Name
G10C A26C A37U U78C A83U U87A C115G G127A | not met
C34U G44C U87A C89G C115A | not met
U14A G39A U55A U78C G117C | not met
A27U G39U | not met
A6G A18U | met

*Q* Would you say A41C C56G C85U C102U shows polymerase ribozyme fitness (log ratio) at minimum -2?
*A* not met

*Q* # repeat for C34A C88A U106C C114A
*A* not met

*Q* Query G60U A90G C123A U125A G135A next
*A* met

*Q* What would you report for G44A U78C ?
*A* met

*Q* Continue with U38A U96G U112A G128A
*A* not met

*Q* Would you mind doing C70U C102A as well?
*A* met

*Q* Now this one: G25A C124U
*A* not met

*Q* Next: G10A C12G C22G C104G
*A* not met

*Q* What about A37U G69A ?
*A* not met

*Q* Same question for C12A C15A C72U C79A C88A please.
*A* not met

*Q* Next variant up: C8U C70A C115U G117A
*A* not met

*Q* // same read-out, input: G45C A84G U87G
*A* not met

*Q* Ok, now C73A C89A A118U
*A* met

*Q* Now consider A91U G120U .
*A* met
